Where a name gives a salt, the structure may show the parent alone.
measured_metric: melting point

Example results:
Cc1cc(CCN2CCOCC2)cc2c(=O)[nH]c(-c3cc4cccn4cn3)nc12 (as salt: hydrochloride); > 250 °C
Cc1cc(CC(=O)N2CCOCC2)cc2c(=O)[nH]c(-c3cc4ccsc4cn3)nc12; > 250 °C
Cc1cc(O[C@@H](C)C2CCOCC2)cc2c(=O)[nH]c(-c3cc(C(F)(F)F)ccn3)nc12; 120 to 132 °C

Give the measured melting point of Cc1cc(CCN2CC3CCC(C2)O3)cc2c(=O)[nH]c(-c3cc(C(F)(F)F)ccn3)nc12.Cl .
160 to 170 °C

Which melting point is reported for this compound? CCC(=O)N1CC(Oc2cc(C)c3nc(-c4cc5ccsc5cn4)[nH]c(=O)c3c2)C1
230 to 240 °C

Entry under review: Cc1cc(CCN2CCOC(C)(C)C2)cc2c(=O)[nH]c(-c3cc(C(F)(F)F)ccn3)nc12.Cl . Reported melting point?
106 to 116 °C

Please look up its melting point: Cl.O=c1[nH]c(-c2cc(C(F)(F)F)ccn2)nc2ccc(OCCCc3ccncc3)cc12
239 to 245 °C

Report melting point for O=c1[nH]c(-c2cc3ccsc3cn2)nc2ccc(OCCCc3cocn3)cc12 please.
197 to 199 °C

Entry under review: Cc1cc(CN2CCCCC2)cc2c(=O)[nH]c(-c3cc4ccsc4cn3)nc12.Cl . Reported melting point?
233 to 240 °C

Any idea what melting point was measured for Cc1cc(CCN2CCOCC2)cc2c(=O)[nH]c(-c3cc4sccc4cn3)nc12.Cl ?
> 250 °C

Item under review: Cc1cc(CCN2CC3(COC3)C2)cc2c(=O)[nH]c(-c3cc4sccc4cn3)nc12 . Reported melting point?
160 to 200 °C

# melting point lookup, item CC(=O)N1CCC(COc2ccc3nc(-c4cc5ccsc5cn4)[nH]c(=O)c3c2)CC1
> 250 °C

Sample Cc1cc(OC2CCC(=O)N(C)C2)cc2c(=O)[nH]c(-c3cc4sccc4cn3)nc12 (stereo not drawn) — what was its melting point?
90 to 110 °C

// lookup melting point for Cc1cc(CCN2CCN(C)C(=O)C2)cc2c(=O)[nH]c(-c3cc(C(F)(F)F)ccn3)nc12.Cl
148 to 150 °C

GET /values?readout=melting point&item= Cc1cc(O[C@H]2CCN(C(=O)OCc3ccccc3)C2)cc2c(=O)[nH]c(-c3cc4sccc4cn3)nc12
224 to 227 °C

Returns the measured melting point for the input compound. Input: Cl.O=c1[nH]c(-c2cc(C(F)(F)F)ccn2)nc2c(Br)cc(CCN3CCOCC3)cc12
> 250 °C

Bench note: what melting point did Cc1cc(CN2CCS(=O)(=O)CC2)cc2c(=O)[nH]c(-c3cc4sccc4cn3)nc12 show?
245 to 250 °C

Requested field: melting point. Item: CCC(=O)N1CCC(COc2ccc3nc(-c4cc5ccsc5cn4)[nH]c(=O)c3c2)CC1
234 to 239 °C

Field request: melting point | item: Cl.O=c1[nH]c(-c2ccc(F)cn2)nc2ccc(OCCCc3ccncc3)cc12
> 250 °C

###

measured_metric: melting point

COCCOc1ccc2nc(-c3cc4cccn4cn3)[nH]c(=O)c2c1; 181 to 187 °C

Quick one: melting point for Cl.O=c1[nH]c(-c2cc3ccsc3cn2)nc2ccc(OCCCc3ccncc3)cc12 ?
> 250 °C

# input molecule: Cl.O=c1[nH]c(-c2cc3sccc3cn2)nc2ccc(OCCN3CCOCC3)cc12 ; wanted: its melting point
> 250 °C

Tell me the measured melting point of Cc1cc(CCN2CC3(COC3)C2)cc2c(=O)[nH]c(-c3cc4ccsc4cn3)nc12 , please.
220 to 225 °C

Item under review: Cc1cc(CN2CCCC2)cc2c(=O)[nH]c(-c3cc4ccsc4cn3)nc12.Cl . Reported melting point?
> 250 °C

GET /values?readout=melting point&item= O=c1[nH]c(-c2cc3cccn3cn2)nc2ccc(OCCCc3ccncc3)cc12
202 to 206 °C

Name the recorded melting point for Cl.O=c1[nH]c(-c2cc3ccccc3cn2)nc2ccc(OCCCc3ccncc3)cc12 .
> 250 °C
